Give measured Binding affinity for each item. Keep answers brief.
- tgt: UniProt:P21451
- Sequence (whole entry): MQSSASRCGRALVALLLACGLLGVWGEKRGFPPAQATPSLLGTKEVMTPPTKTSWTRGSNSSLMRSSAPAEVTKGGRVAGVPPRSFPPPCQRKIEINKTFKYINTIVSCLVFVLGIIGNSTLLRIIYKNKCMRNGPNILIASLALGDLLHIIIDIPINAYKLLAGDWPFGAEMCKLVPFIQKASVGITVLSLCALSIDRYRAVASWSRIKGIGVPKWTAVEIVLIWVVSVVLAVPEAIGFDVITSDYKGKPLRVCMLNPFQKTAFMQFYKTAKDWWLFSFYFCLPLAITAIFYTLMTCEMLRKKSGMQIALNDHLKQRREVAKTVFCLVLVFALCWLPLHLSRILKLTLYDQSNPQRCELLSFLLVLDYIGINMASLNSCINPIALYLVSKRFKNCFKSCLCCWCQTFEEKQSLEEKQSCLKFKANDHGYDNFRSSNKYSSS
- condition-set: Cerebellum
- Description: Inhibition of (125 I)-endothelin 1 binding to endothelin B receptor in rat cerebellum
Unit nM implied. Number only.

Ask: I have this compound here, "O=C(O)c1c(CC2CCCCC2)c(=O)c2ccccc2n1Cc1cc2c(cc1Cl)OCO2" , and I need its recorded Binding affinity.
Result: 100

Ask: I have this compound here, "O=C(O)C[C@H]1CC[C@H](Cc2c(C(=O)O)n(Cc3cc4c(cc3Cl)OCO4)c3ccccc3c2=O)CC1" , and I need its recorded Binding affinity.
Result: 6630

Ask: I have this compound here, "O=C(O)c1ccc(Cc2c(C(=O)O)n(Cc3cc4c(cc3Cl)OCO4)c3ccccc3c2=O)cc1" , and I need its recorded Binding affinity.
Result: 17100

Ask: I have this compound here, "O=C(O)c1c(Cc2ccco2)c(=O)c2ccccc2n1Cc1cc2c(cc1Cl)OCO2" , and I need its recorded Binding affinity.
Result: 1890

Ask: I have this compound here, "COc1ccc(Cc2c(C(=O)O)n(Cc3ccc4c(c3)OCO4)c3ccccc3c2=O)cc1" , and I need its recorded Binding affinity.
Result: 606

* * *

- tgt: UniProt:P21451
- condition-set: Cerebellum
property: log10 of Binding affinity (log10 of the value in nM)
log10 Binding affinity, nM

Ask: I have this compound here, "CCCCc1cn(Cc2ccc(-c3ccccc3C(=O)O)cc2)c2ccc(Cn3ccc4ccccc43)cc2c1=O" , and I need its recorded log10 of Binding affinity.
Result: 5.04

Ask: I have this compound here, "CCCCc1cn(Cc2ccc(-c3ccccc3-n3cnnn3)cc2)c2ccc(CSc3ccccn3)cc2c1=O" , and I need its recorded log10 of Binding affinity.
Result: 4.08

Ask: I have this compound here, "O=C(O)c1c(Cc2ccoc2)c(=O)c2ccccc2n1Cc1cc2c(cc1Cl)OCO2" , and I need its recorded log10 of Binding affinity.
Result: 3.28

Ask: I have this compound here, "O=C(O)c1cccc(Cc2c(C(=O)O)n(Cc3cc4c(cc3Cl)OCO4)c3ccccc3c2=O)c1" , and I need its recorded log10 of Binding affinity.
Result: 2.70

Ask: I have this compound here, "COc1ccc(Cc2c(C(=O)O)n(Cc3cc(OC)c4c(c3)OCO4)c3ccccc3c2=O)cc1" , and I need its recorded log10 of Binding affinity.
Result: 2.39

Ask: I have this compound here, "O=C(O)c1cc(=O)c2ccccc2n1Cc1cc2c(cc1Cl)OCO2" , and I need its recorded log10 of Binding affinity.
Result: 4.46

Ask: I have this compound here, "O=C(O)c1c(Cc2cccc(Cl)c2Cl)c(=O)c2ccccc2n1Cc1cc2c(cc1Cl)OCO2" , and I need its recorded log10 of Binding affinity.
Result: 2.76

Ask: I have this compound here, "C=Cc1cc2c(cc1Cn1c(C(=O)O)c(Cc3ccc(OC)cc3)c(=O)c3ccccc31)OCO2" , and I need its recorded log10 of Binding affinity.
Result: 1.85

Ask: I have this compound here, "CCc1cc2c(cc1Cn1c(C(=O)O)c(Cc3ccc(OC)cc3)c(=O)c3ccccc31)OCO2" , and I need its recorded log10 of Binding affinity.
Result: 1.84

Ask: I have this compound here, "O=C(O)CCCCCc1c(C(=O)O)n(Cc2cc3c(cc2Cl)OCO3)c2ccccc2c1=O" , and I need its recorded log10 of Binding affinity.
Result: 3.98

Ask: I have this compound here, "O=C(O)c1c(Cc2ccccc2)c(=O)c2ccccc2n1Cc1cc2c(cc1Cl)OCO2" , and I need its recorded log10 of Binding affinity.
Result: 2.20

Ask: I have this compound here, "COc1ccc(Cn2c(C(=O)O)c(Cc3ccc4c(c3)OCO4)c(=O)c3ccccc32)cc1" , and I need its recorded log10 of Binding affinity.
Result: 4.20

Ask: I have this compound here, "C=Cc1ccc(Cc2c(C(=O)O)n(Cc3cc4c(cc3Cl)OCO4)c3ccccc3c2=O)cc1" , and I need its recorded log10 of Binding affinity.
Result: 2.28

* * *

Give measured Binding affinity for each item. Keep answers brief.
- tgt: Endothelin receptor type B (Rattus norvegicus)
- condition-set: Cerebellum

Ask: I have this compound here, "O=C(O)c1c(Cc2ccc(Br)cc2)c(=O)c2ccccc2n1Cc1cc2c(cc1Cl)OCO2" , and I need its recorded Binding affinity.
Result: 166 nM

Ask: I have this compound here, "COc1ccc(Cc2c(C(=O)O)n(Cc3cc4c(cc3Br)OCO4)c3ccccc3c2=O)cc1" , and I need its recorded Binding affinity.
Result: 244 nM

Ask: I have this compound here, "COc1ccc(Cc2c(C(=O)O)n(Cc3cc4c(cc3Cl)OCO4)c3ccccc3c2=O)cc1" , and I need its recorded Binding affinity.
Result: 216 nM

Ask: I have this compound here, "COc1cc(Cc2c(C(=O)O)n(Cc3cc4c(cc3Cl)OCO4)c3ccccc3c2=O)cc(OC)c1OC" , and I need its recorded Binding affinity.
Result: 789 nM

Ask: I have this compound here, "CCOC(=O)C[C@H]1CC[C@H](Cc2c(C(=O)O)n(Cc3cc4c(cc3Cl)OCO4)c3ccccc3c2=O)CC1" , and I need its recorded Binding affinity.
Result: 5000 nM

* * *

Give measured Binding affinity for each item. Keep answers brief.
- tgt: Endothelin-1 receptor (Rattus norvegicus)
- protocol-text: Inhibition of (125 I)-endothelin 1 binding to endothelin A receptor in rat ventricle
Include the unit right after the number.

Ask: Please tell me: Binding affinity of "CCOC(=O)C[C@H]1CC[C@H](Cc2c(C(=O)O)n(Cc3cc4c(cc3Cl)OCO4)c3ccccc3c2=O)CC1" , system Endothelin-1 receptor (Rattus norvegicus)?
Result: 4.7 nM

Ask: Please tell me: Binding affinity of "COc1ccc(Cc2c(C(=O)O)n(Cc3cc4c(cc3Cl)OCO4)c3ccccc3c2=O)cc1" , system Endothelin-1 receptor (Rattus norvegicus)?
Result: 1.6 nM

Ask: Please tell me: Binding affinity of "COc1ccc(Cn2c(C(=O)O)c(Cc3ccc4c(c3)OCO4)c(=O)c3ccccc32)cc1" , system Endothelin-1 receptor (Rattus norvegicus)?
Result: 255 nM

Ask: Please tell me: Binding affinity of "CCCCc1cn(Cc2ccc(-c3ccccc3-n3cnnn3)cc2)c2ccc(CSc3ccccn3)cc2c1=O" , system Endothelin-1 receptor (Rattus norvegicus)?
Result: 11000 nM

Ask: Please tell me: Binding affinity of "O=C(O)C[C@H]1CC[C@H](Cc2c(C(=O)O)n(Cc3cc4c(cc3Cl)OCO4)c3ccccc3c2=O)CC1" , system Endothelin-1 receptor (Rattus norvegicus)?
Result: 3.4 nM

Ask: Please tell me: Binding affinity of "CCc1cc2c(cc1Cn1c(C(=O)O)c(Cc3ccc(OC)cc3)c(=O)c3ccccc31)OCO2" , system Endothelin-1 receptor (Rattus norvegicus)?
Result: 1 nM

Ask: Please tell me: Binding affinity of "O=C(O)c1cccc(Cc2c(C(=O)O)n(Cc3cc4c(cc3Cl)OCO4)c3ccccc3c2=O)c1" , system Endothelin-1 receptor (Rattus norvegicus)?
Result: 3 nM

Ask: Please tell me: Binding affinity of "O=C(O)c1c(Cc2ccco2)c(=O)c2ccccc2n1Cc1cc2c(cc1Cl)OCO2" , system Endothelin-1 receptor (Rattus norvegicus)?
Result: 5.7 nM

Ask: Please tell me: Binding affinity of "O=C(O)c1cc(=O)c2ccccc2n1Cc1cc2c(cc1Cl)OCO2" , system Endothelin-1 receptor (Rattus norvegicus)?
Result: 8700 nM

* * *

Give measured Binding affinity for each item. Keep answers brief.
- tgt: Endothelin-1 receptor (Rattus norvegicus) (UniProt P26684)
- Sequence (P26684 whole entry): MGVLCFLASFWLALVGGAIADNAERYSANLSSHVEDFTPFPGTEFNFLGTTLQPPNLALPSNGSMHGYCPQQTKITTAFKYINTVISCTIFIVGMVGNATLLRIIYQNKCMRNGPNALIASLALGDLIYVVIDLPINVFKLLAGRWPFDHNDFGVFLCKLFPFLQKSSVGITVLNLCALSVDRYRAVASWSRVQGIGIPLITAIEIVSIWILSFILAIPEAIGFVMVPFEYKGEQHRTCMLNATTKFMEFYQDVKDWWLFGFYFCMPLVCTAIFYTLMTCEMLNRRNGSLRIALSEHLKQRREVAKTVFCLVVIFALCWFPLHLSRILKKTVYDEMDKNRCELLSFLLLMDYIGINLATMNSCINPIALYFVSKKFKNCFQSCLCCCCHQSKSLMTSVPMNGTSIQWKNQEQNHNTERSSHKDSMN
- protocol-text: Inhibition of (125 I)-endothelin 1 binding to endothelin A receptor in rat ventricle
Include the unit right after the number.

Ask: I have this compound here, "COc1ccc(Cc2c(C(=O)O)n(Cc3cc4c(cc3Br)OCO4)c3ccccc3c2=O)cc1" , and I need its recorded Binding affinity.
Result: 7.8 nM

Ask: I have this compound here, "CCCCc1cn(Cc2ccc(-c3ccccc3C(=O)O)cc2)c2ccc(Cn3ccc4ccccc43)cc2c1=O" , and I need its recorded Binding affinity.
Result: 7600 nM

Ask: I have this compound here, "O=C(O)c1c(Cc2ccoc2)c(=O)c2ccccc2n1Cc1cc2c(cc1Cl)OCO2" , and I need its recorded Binding affinity.
Result: 29 nM

Ask: I have this compound here, "O=C(O)c1c(Cc2cccnc2)c(=O)c2ccccc2n1Cc1cc2c(cc1Cl)OCO2" , and I need its recorded Binding affinity.
Result: 20.4 nM

Ask: I have this compound here, "O=C(O)c1c(Cc2cccc(Cl)c2Cl)c(=O)c2ccccc2n1Cc1cc2c(cc1Cl)OCO2" , and I need its recorded Binding affinity.
Result: 10.9 nM

Ask: I have this compound here, "C=Cc1ccc(Cc2c(C(=O)O)n(Cc3cc4c(cc3Cl)OCO4)c3ccccc3c2=O)cc1" , and I need its recorded Binding affinity.
Result: 5.6 nM

Ask: I have this compound here, "O=C(O)CCCCCc1c(C(=O)O)n(Cc2cc3c(cc2Cl)OCO3)c2ccccc2c1=O" , and I need its recorded Binding affinity.
Result: 93 nM

Ask: I have this compound here, "COC(=O)c1cccc(Cc2c(C(=O)O)n(Cc3cc4c(cc3Cl)OCO4)c3ccccc3c2=O)c1" , and I need its recorded Binding affinity.
Result: 8.2 nM

Ask: I have this compound here, "CCc1cc2c(cc1Cn1c(C(=O)[O-])c(Cc3cccc(C(=O)[O-])c3)c(=O)c3ccccc31)OCO2.[K+].[K+]" , and I need its recorded Binding affinity.
Result: 0.69 nM

Ask: I have this compound here, "C=Cc1cc2c(cc1Cn1c(C(=O)O)c(Cc3ccc(OC)cc3)c(=O)c3ccccc31)OCO2" , and I need its recorded Binding affinity.
Result: 1.8 nM

Ask: I have this compound here, "O=C(O)c1c(CC2CCCCC2)c(=O)c2ccccc2n1Cc1cc2c(cc1Cl)OCO2" , and I need its recorded Binding affinity.
Result: 1.1 nM

Ask: I have this compound here, "COc1ccc(Cc2c(C(=O)O)n(Cc3ccc4c(c3)OCO4)c3ccccc3c2=O)cc1" , and I need its recorded Binding affinity.
Result: 10.7 nM

Ask: I have this compound here, "O=C(O)c1c(Cc2ccc(Br)cc2)c(=O)c2ccccc2n1Cc1cc2c(cc1Cl)OCO2" , and I need its recorded Binding affinity.
Result: 5.7 nM

Ask: I have this compound here, "COc1ccc(Cc2c(C(=O)O)n(Cc3cc4c(cc3Cl)OCO4)c3ccccc3c2=O)c(OCC(=O)O)c1" , and I need its recorded Binding affinity.
Result: 54.3 nM

Ask: I have this compound here, "O=C(O)c1ccc(Cc2c(C(=O)O)n(Cc3cc4c(cc3Cl)OCO4)c3ccccc3c2=O)cc1" , and I need its recorded Binding affinity.
Result: 4.6 nM

Ask: I have this compound here, "O=C(O)c1c(Cc2ccccc2)c(=O)c2ccccc2n1Cc1cc2c(cc1Cl)OCO2" , and I need its recorded Binding affinity.
Result: 4.1 nM

Ask: I have this compound here, "COc1cc(Cc2c(C(=O)O)n(Cc3cc4c(cc3Cl)OCO4)c3ccccc3c2=O)cc(OC)c1OC" , and I need its recorded Binding affinity.
Result: 1.9 nM

Ask: I have this compound here, "COc1ccc(Cc2c(C(=O)O)n(Cc3cc(OC)c4c(c3)OCO4)c3ccccc3c2=O)cc1" , and I need its recorded Binding affinity.
Result: 9.5 nM

Ask: I have this compound here, "COc1ccc(Cc2c(C(=O)O)n(Cc3cc(Br)c4c(c3)OCO4)c3ccccc3c2=O)cc1" , and I need its recorded Binding affinity.
Result: 18.9 nM
